# reported viability increase; entries follow
test: viability gain of MRP-1-high H69AR cells under doxorubicin, pilot screen, MRP-1 activator project, CellTiter-Glo, duplicate (AID 807); conditions: H69AR viability with doxorubicin, CellTiter-Glo luminescence; at 10 µM; active compounds read high;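 note: compound pretreatment 18-22 h then 72 h combined with doxorubicin; 0% = doxorubicin alone and 100% = vehicle without doxorubicin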

compound: COc1cc2c(cc1OC)CN(C(=O)C(C)(C)C)CC2
viability increase [%]: 0.45
--
compound: O=C(c1ccc(NC2=NC3CS(=O)(=O)CC3S2)cc1)N1CCN(C(=O)c2ccco2)CC1 (stereo not given)
viability increase [%]: 0.69
--
compound: CCCN1CCN(C(=O)CCCn2c(C)c3cnn(-c4ccccc4)c(=O)c3c2C)CC1
viability increase [%]: -2.94
--
compound: CCOc1ccc(-c2nnc3ccc(SCC(=O)N4CCCCC4)nn23)cc1
viability increase [%]: -4.24
--
compound: Cc1onc(-c2ccccc2)c1C(=O)Nc1nnc(N2CCCCCC2)s1
viability increase [%]: 2

* * *

experiment: viability gain of MRP-1-high H69AR cells under doxorubicin, pilot screen, MRP-1 activator project, CellTiter-Glo, duplicate (AID 807); conditions: H69AR viability with doxorubicin, CellTiter-Glo luminescence; at 10 µM; active compounds read high;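 note: compound pretreatment 18-22 h then 72 h combined with doxorubicin; 0% = doxorubicin alone and 100% = vehicle without doxorubicin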

compound: COc1ccccc1CNC(=O)C1COc2ccccc2O1 (stereo unspecified)
unit abbreviation: %
viability increase: 0.65
//
compound: Cc1ccc(-n2ncc3c(=O)[nH]c(SCC(=O)N4CCC(C)CC4)nc32)cc1C
unit abbreviation: %
viability increase: -5.08
//
compound: O=C(CSCC(=O)N1CCOCC1)Nc1nc(-c2ccc3c(c2)OCO3)cs1
unit abbreviation: %
viability increase: -3.99
//
compound: CCC(NC(=O)c1ccccc1NC(=O)c1ccco1)C(=O)O (stereo unspecified)
unit abbreviation: %
viability increase: -4.34
//
compound: CC(=O)Nc1nonc1-c1nc2ccccc2n1Cc1nnc(C)o1
unit abbreviation: %
viability increase: -3.32
//
compound: CCC(=O)Nc1nc2ccccc2n1CCN1CCOCC1
unit abbreviation: %
viability increase: -2.15
//
compound: COc1ccc(C(=O)NCC(c2cccnc2)N2CCN(c3ccc(F)cc3)CC2)cc1OC (stereo unspecified)
unit abbreviation: %
viability increase: -3.89
//
compound: Cn1c(=O)[nH]c(=O)c2c1nc(NC1CCCCC1)n2CCO
unit abbreviation: %
viability increase: -2.15
//
compound: CCOC(=O)c1[nH]c(=O)[nH]c1CSc1nc(C)cc(C)n1
unit abbreviation: %
viability increase: -3.65
//
compound: Cn1c(=O)c2c(nc(SCCN3CCOCC3)n2Cc2ccccc2Cl)n(C)c1=O
unit abbreviation: %
viability increase: -5.35
//
compound: COc1cc(CN2CCN(CCOCCO)CC2)cc(OC)c1OC
unit abbreviation: %
viability increase: 0.51

* * *

experiment: viability gain of MRP-1-high H69AR cells under doxorubicin, pilot screen, MRP-1 activator project, CellTiter-Glo, duplicate (AID 807); conditions: H69AR viability with doxorubicin, CellTiter-Glo luminescence; at 10 µM; active compounds read high;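 note: compound pretreatment 18-22 h then 72 h combined with doxorubicin; 0% = doxorubicin alone and 100% = vehicle without doxorubicin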
Calls of active or inactive are those of the source.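 How the source made its calls: active means viability increase at or above a cutoff of the median across tested compounds plus 3 SD (cut at about 8.5% in these data, passing the limit was not always enough); inconclusive means some gains above the cutoff, reason not given; inactive means the rest.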
# reported viability increase; entries follow
quantity measured: viability increase

mol smiles: Cc1cc(C)n(-c2nc3ccccc3nc2Nc2ccc(CC(=O)O)cc2)n1
quantity measured: viability increase
endpoint result: -1.81% (inactive)
--
mol smiles: c1ccc(Oc2nc(Oc3ccccc3)nc(N3CCOCC3)n2)cc1
quantity measured: viability increase
endpoint result: -2.99% (inactive)
--
mol smiles: Cc1cccc(OCc2nnc(SCC(=O)NCCc3ccccc3)o2)c1
quantity measured: viability increase
endpoint result: -1.67% (inactive)
--
mol smiles: COc1ccccc1CNC(=O)c1ccc(CNc2c(N3CCCC3)c(=O)c2=O)cc1
quantity measured: viability increase
endpoint result: -2.46% (inactive)
--
mol smiles: CCn1c(SCC(=O)Nc2ccccc2C(=O)OC)nc2c1c(=O)n(C)c(=O)n2C
quantity measured: viability increase
endpoint result: -3.55% (inactive)
--
mol smiles: COc1ccccc1NC(=O)CSc1nnc(-c2ccccc2)o1
quantity measured: viability increase
endpoint result: -0.16% (inactive)

* * *

assay: RAM signaling pathway blockade in yeast – S. cerevisiae, Pdr1DBD-CYC8 efflux-inhibited sensitized strain, primary screen (AID 1298);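 note: 0% = DMSO untreated cells without growth and 100% = 10 µM 1-NA-PP1 full growth; higher means more yeast growth rescued from 5-FOA killing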; conditions: S. cerevisiae cbk1-as DSE1-URA3 strain, 5-FOA growth OD615, 2 d; at 50 µM; active compounds read high
Calls of active or inactive are those of the source.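 How the source made its calls: active means RAM network inhibition above 8.4% in each of two replicates, 3 SD over the compound average; inconclusive means above 8.4% inhibition in only one replicate; inactive means 8.4% inhibition or less in each replicate.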
# reported RAM network inhibition; entries follow
quantity measured: RAM network inhibition

molecule: COc1nc(Nc2ccc3c(c2)OCO3)nc(OC)n1
quantity measured: RAM network inhibition
endpoint result: 4.7% (inactive)

molecule: CC(=O)N1CCc2c(sc(NC(=O)CN3C(=O)CCC3=O)c2C(N)=O)C1
quantity measured: RAM network inhibition
endpoint result: 2.93% (inactive)

molecule: Cc1c(C(=O)NCc2ccccn2)sc2nc(-c3ccccc3)cn12
quantity measured: RAM network inhibition
endpoint result: 0.57% (inactive)

molecule: COc1ccc(OC)c(CN2C(=O)c3ccccc3C2C(=O)NCc2cccnc2)c1 (configuration not stated)
quantity measured: RAM network inhibition
endpoint result: 4.09% (inactive)

molecule: O=C(CCS(=O)(=O)c1cccc2nonc12)N1CCCc2ccccc21
quantity measured: RAM network inhibition
endpoint result: 8.49% (inactive)

molecule: C(#Cc1ccc(C#CCN2CCOCC2)cc1)CN1CCOCC1
quantity measured: RAM network inhibition
endpoint result: 3.18% (inactive)

molecule: N=c1n(CCO)c2ccccc2n1CCOc1ccc(Cl)cc1Cl
quantity measured: RAM network inhibition
endpoint result: 0.72% (inactive)

molecule: O=S(=O)(c1ccc(-c2cn3ccccc3n2)cc1)N1CCOCC1
quantity measured: RAM network inhibition
endpoint result: 3.9% (inactive)

molecule: Cc1cc(C)n(/N=C/c2cccc(O)c2)c(=O)c1C(N)=O
quantity measured: RAM network inhibition
endpoint result: 4.4% (inactive)

molecule: O=S(=O)(NCCSc1nc2ccccc2o1)c1ccccc1
quantity measured: RAM network inhibition
endpoint result: 6.51% (inactive)

molecule: CCSC1=C(C#N)C(c2ccccc2C)CC(=O)N1 (configuration not stated)
quantity measured: RAM network inhibition
endpoint result: 4.78% (inactive)

molecule: O=C(Nc1cc(=O)c2ccccc2o1)N1CCOCC1
quantity measured: RAM network inhibition
endpoint result: 1.4% (inactive)

molecule: CCOc1ccc(C(F)(F)F)cc1NC(C)=O
quantity measured: RAM network inhibition
endpoint result: 3.29% (inactive)

molecule: O=C(NCc1ccc2c(c1)OCO2)c1nnc(Cc2ccc(Cl)cc2)o1
quantity measured: RAM network inhibition
endpoint result: 5.48% (inactive)

molecule: CCOC(=O)CCCSc1nc2sc(C)c(C)c2c(=O)[nH]1
quantity measured: RAM network inhibition
endpoint result: 3.95% (inactive)

molecule: O=C(CCn1c(=O)sc2ccccc21)NCc1ccccc1
quantity measured: RAM network inhibition
endpoint result: 2.7% (inactive)

molecule: CC(=O)Oc1cccc(N2C(=O)C3CC=C(Cl)CC3C2=O)c1 (configuration not stated)
quantity measured: RAM network inhibition
endpoint result: 1.87% (inactive)

molecule: COc1ccc(OC)c2sc(NC(=O)CCS(=O)(=O)c3ccccc3)nc12
quantity measured: RAM network inhibition
endpoint result: 11% (inactive)

molecule: COc1ccc(C(=O)Nc2cc(-c3nn4c(C)nnc4s3)ccc2C)cc1
quantity measured: RAM network inhibition
endpoint result: 2.75% (inactive)

molecule: COc1ccc(N2Cc3cccc(C(=O)NC(C)CCc4ccco4)c3C2=O)cc1 (configuration not stated)
quantity measured: RAM network inhibition
endpoint result: 7.29% (inactive)

molecule: COc1ccc(NC(=O)c2c(NC(=O)CNCc3ccco3)sc3c2CCC3)c(OC)c1
quantity measured: RAM network inhibition
endpoint result: 5.28% (inactive)

molecule: CCC1CCCCN1C(=O)c1cc2cc(Br)ccc2oc1=O (configuration not stated)
quantity measured: RAM network inhibition
endpoint result: 2.89% (inactive)

molecule: CN1CCN(C(=O)C2CCC(CNS(=O)(=O)c3cccc4cccnc34)CC2)CC1 (configuration not stated)
quantity measured: RAM network inhibition
endpoint result: 0.46% (inactive)

molecule: Cc1ccc(Cn2c(Sc3nnc(C)s3)nc3c2c(=O)[nH]c(=O)n3C)cc1
quantity measured: RAM network inhibition
endpoint result: 1.84% (inactive)

molecule: O=C(CCN1CCc2ccccc2C1)Nc1ccccc1
quantity measured: RAM network inhibition
endpoint result: 2.39% (inactive)

molecule: Cn1c(Cn2c(=O)sc3ccccc32)nnc1SCC(=O)N1CCCCCC1
quantity measured: RAM network inhibition
endpoint result: 1.04% (inactive)

molecule: CCn1c(C2CC(=O)N(Cc3ccccc3)C2)nc2ccccc21 (configuration not stated)
quantity measured: RAM network inhibition
endpoint result: 4.25% (inactive)

molecule: COc1ccc(NC(=O)C(CC(=O)O)Cc2ccccc2)cc1 (configuration not stated)
quantity measured: RAM network inhibition
endpoint result: 5.61% (inactive)

molecule: Cc1ccc(-c2nn3c(C)nnc3s2)cc1NC(=O)C(C)C
quantity measured: RAM network inhibition
endpoint result: -0.58% (inactive)

molecule: Brc1ccc(-c2noc(COc3ccc4c(c3)CCC4)n2)o1
quantity measured: RAM network inhibition
endpoint result: 4.46% (inactive)

molecule: COc1c(Cl)ccc(Cl)c1C(=O)OCC(=O)O
quantity measured: RAM network inhibition
endpoint result: 4.54% (inactive)

molecule: CCOc1ccc(C2c3c(oc4ccccc4c3=O)C(=O)N2CCCN2CCOCC2)cc1OCC (configuration not stated)
quantity measured: RAM network inhibition
endpoint result: 1.21% (inactive)

molecule: COc1ccc(C(c2sc3nc(C)nn3c2O)N2CCC(O)CC2)cc1OC (configuration not stated)
quantity measured: RAM network inhibition
endpoint result: 5.56% (inactive)

molecule: CC(N=C1NS(=O)(=O)c2ccccc21)c1ccccc1 (configuration not stated)
quantity measured: RAM network inhibition
endpoint result: 5.97% (inactive)

molecule: O=C(Cn1c(N2CCN(c3ccccc3)CC2)nc2ccccc21)c1ccccc1
quantity measured: RAM network inhibition
endpoint result: 4.62% (inactive)

molecule: Cn1cccc1Cc1nnc(SCC(=O)NCCc2ccccc2)n1-c1ccc(F)cc1
quantity measured: RAM network inhibition
endpoint result: 5.42% (inactive)

molecule: Cc1ccc(S(=O)(=O)Cc2ccc(C(=O)N3CCN(c4ccccn4)CC3)o2)cc1
quantity measured: RAM network inhibition
endpoint result: 3.12% (inactive)

molecule: Cc1ccc(S(=O)(=O)N(C)CCCC(=O)Nc2ccncc2)cc1
quantity measured: RAM network inhibition
endpoint result: 1.94% (inactive)

molecule: CC1=C(C#N)C2C(/C1=N/O)C2(C)C (configuration not stated)
quantity measured: RAM network inhibition
endpoint result: 1.21% (inactive)

molecule: CCCCCn1c(SCC(=O)OC)nc2c1c(=O)[nH]c(=O)n2C
quantity measured: RAM network inhibition
endpoint result: 0.79% (inactive)

molecule: COCc1cc(=O)n2[nH]c(-c3cccc(Br)c3)cc2n1
quantity measured: RAM network inhibition
endpoint result: 5.82% (inactive)

molecule: CCOC(=O)N1CCN(c2c(NCc3ccccn3)c(=O)c2=O)CC1
quantity measured: RAM network inhibition
endpoint result: 1.45% (inactive)

molecule: Cc1ccc(OS(=O)Nc2cccc3nccnc23)cc1 (configuration not stated)
quantity measured: RAM network inhibition
endpoint result: 2.2% (inactive)

molecule: COc1ccc(-c2nc(=S)[nH][nH]2)cc1
quantity measured: RAM network inhibition
endpoint result: 5.26% (inactive)

molecule: Cc1cc(Nc2cccc(F)c2)n2nc(C)nc2n1
quantity measured: RAM network inhibition
endpoint result: 5.28% (inactive)

molecule: c1ccc(Nc2nc3ccccc3n3cnnc23)cc1
quantity measured: RAM network inhibition
endpoint result: -0.58% (inactive)

molecule: CC(CNC(=O)c1ccc(Br)o1)NC(=O)c1ccc(Br)o1 (configuration not stated)
quantity measured: RAM network inhibition
endpoint result: 1.17% (inactive)
